Test system: α-isomaltosylglucosaccharide-forming enzyme
protocolNotes: Influence of metal ions on the activity of α-isomaltosylglucosaccharide-forming enzyme (Strain C11)
Type: biochemical, Bacillus globisporus C11
assayContext: 1 mM
valueKind: influence on the enzyme activity, in words

Look over these answered cases.
[
  {
    "compound": "[Cu+2] [Cu^2+]",
    "experimentalTarget": "α-isomaltosylglucosaccharide-forming enzyme",
    "result": "greatly inhibited"
  },
  {
    "compound": "[Ba+2] [Ba^2+]",
    "experimentalTarget": "α-isomaltosylglucosaccharide-forming enzyme",
    "result": "also inhibited"
  },
  {
    "compound": "[Sr+2] [Sr^2+]",
    "experimentalTarget": "α-isomaltosylglucosaccharide-forming enzyme",
    "result": "also inhibited"
  },
  {
    "compound": "[Mn+2] [Mn^2+]",
    "experimentalTarget": "α-isomaltosylglucosaccharide-forming enzyme",
    "result": "activated"
  },
  {
    "compound": "[Hg+2] [Hg^2+]",
    "experimentalTarget": "α-isomaltosylglucosaccharide-forming enzyme",
    "result": "greatly inhibited"
  },
  {
    "compound": "[Ca+2] [Ca^2+]",
    "experimentalTarget": "α-isomaltosylglucosaccharide-forming enzyme",
    "result": "activated"
  }
]

Pending compound:
Supply reported influence on the enzyme activity, in words belonging to this compound: O=C(O)CN(CCN(CC(=O)O)CC(=O)O)CC(=O)O [EDTA, ethylenediaminetetraacetic acid, reference compound]
greatly inhibited

###

Test system: α-isomaltosyl-transferring enzyme
protocolNotes: Influence of metal ions on the activity of α-isomaltosyl-transferring enzyme (Strain N75)
Type: biochemical, Bacillus globisporus N75
assayContext: 1 mM of each metal-ion
Recorded Relative activity (%) by entry
Quick note: give the figure in %, leave out the unit.

In one line, give reported Relative activity (%) of the entry [Co+2] .
92

###

Tested on: α-isomaltosylglucosaccharide-forming enzyme
protocolNotes: Action on saccharides (substrates), Enzyme of Strain C11
Type: biochemical, Bacillus globisporus C11
Set-up: key: −: it showed no change; +: it showed a slight reduction of the color spot of the substrate and the formation of other reaction product; ++: it showed a high reduction of the color spot of the substrate and the formation of other reaction product; +++: it showed a substantial disappearance of the substrate spot and the formation of other reaction product
assayContext: two units/g substrate, substrate 2% (w/v), 30° C., pH 6.0, 24 hours, TLC
valueKind: Enzymatic action, Enzyme of Strain C11

Sample answers from the record:
[
  {
    "compound": "OC[C@H]1O[C@@H](OC[C@H]2OC(O)[C@H](O)[C@@H](O)[C@@H]2O)[C@H](O)[C@@H](O)[C@@H]1O (stereo partly drawn)",
    "valueKind": "Enzymatic action, Enzyme of Strain C11",
    "result": "−"
  },
  {
    "compound": "OC[C@H]1O[C@@H](O[C@H]2[C@H](O)[C@@H](O)C(O)O[C@@H]2CO)[C@H](O)[C@@H](O)[C@H]1O (stereo partly drawn)",
    "valueKind": "Enzymatic action, Enzyme of Strain C11",
    "result": "−"
  },
  {
    "compound": "OC[C@H]1O[C@H](O[C@H]2[C@H](O)[C@@H](O)[C@@H](OC[C@H]3OC(O)[C@H](O)[C@@H](O)[C@@H]3O)O[C@@H]2CO)[C@H](O)[C@@H](O)[C@@H]1O (stereo partly drawn)",
    "valueKind": "Enzymatic action, Enzyme of Strain C11",
    "result": "++"
  },
  {
    "compound": "OC[C@H]1O[C@H](OC[C@H]2O[C@H](O[C@H]3[C@H](O)[C@@H](O)C(O)O[C@@H]3CO)[C@H](O)[C@@H](O)[C@@H]2O)[C@H](O)[C@@H](O)[C@@H]1O (stereo partly drawn)",
    "valueKind": "Enzymatic action, Enzyme of Strain C11",
    "result": "−"
  },
  {
    "compound": "O=C[C@H](O)[C@@H](O)[C@H](O[C@@H]1O[C@H](CO)[C@@H](O)[C@H](O)[C@H]1O)[C@H](O)CO",
    "valueKind": "Enzymatic action, Enzyme of Strain C11",
    "result": "−"
  }
]

Next, consider the following compound.
Return the recorded Enzymatic action, Enzyme of Strain C11 value; entry: OC[C@H]1O[C@H](O[C@H]2[C@H](O)[C@@H](CO)OC(O)[C@@H]2O)[C@H](O)[C@@H](O)[C@@H]1O (stereo partly drawn)
+

###

System: α-isomaltosylglucosaccharide-forming enzyme
protocolNotes: Action on saccharides (substrates), Enzyme of Strain C9
Type: biochemical, Bacillus globisporus C9
Set-up: key: −: it showed no change; +: it showed a slight reduction of the color spot of the substrate and the formation of other reaction product; ++: it showed a high reduction of the color spot of the substrate and the formation of other reaction product; +++: it showed a substantial disappearance of the substrate spot and the formation of other reaction product
assayContext: two units/g substrate, substrate 2% (w/v), 30° C., pH 6.0, 24 hours, TLC
valueKind: Enzymatic action, Enzyme of Strain C9

Consider the worked cases shown below.
[
  {
    "compound": "OC[C@H]1O[C@H](OC[C@H]2OC(O)[C@H](O)[C@@H](O)[C@@H]2O)[C@H](O)[C@@H](O)[C@@H]1O (stereo partly shown)",
    "experimentalTarget": "α-isomaltosylglucosaccharide-forming enzyme",
    "Enzymatic action, Enzyme of Strain C9": "−"
  },
  {
    "compound": "OC[C@@H](O)[C@@H](O[C@H]1O[C@H](CO)[C@@H](O)[C@H](O)[C@H]1O)[C@H](O)[C@@H](O)CO [Maltitol, reference compound]",
    "experimentalTarget": "α-isomaltosylglucosaccharide-forming enzyme",
    "Enzymatic action, Enzyme of Strain C9": "−"
  },
  {
    "compound": "OC[C@H]1O[C@H](O[C@H]2[C@H](O)[C@@H](O)[C@@H](O[C@H]3[C@H](O)[C@@H](O)[C@@H](O[C@H]4[C@H](O)[C@@H](O)C(O)O[C@@H]4CO)O[C@@H]3CO)O[C@@H]2CO)[C@H](O)[C@@H](O)[C@@H]1O (stereo partly shown)",
    "experimentalTarget": "α-isomaltosylglucosaccharide-forming enzyme",
    "Enzymatic action, Enzyme of Strain C9": "+++"
  },
  {
    "compound": "O=C[C@H](O)[C@@H](O)[C@H](O[C@@H]1O[C@H](CO)[C@@H](O)[C@H](O)[C@H]1O)[C@H](O)CO",
    "experimentalTarget": "α-isomaltosylglucosaccharide-forming enzyme",
    "Enzymatic action, Enzyme of Strain C9": "−"
  },
  {
    "compound": "OC[C@H]1O[C@H](O[C@H]2C(O)O[C@H](CO)[C@@H](O)[C@@H]2O)[C@H](O)[C@@H](O)[C@@H]1O (stereo partly shown)",
    "experimentalTarget": "α-isomaltosylglucosaccharide-forming enzyme",
    "Enzymatic action, Enzyme of Strain C9": "+"
  },
  {
    "compound": "OC[C@H]1O[C@H](O[C@H]2[C@H](O)[C@@H](O)[C@@H](OC[C@H]3OC(O)[C@H](O)[C@@H](O)[C@@H]3O)O[C@@H]2CO)[C@H](O)[C@@H](O)[C@@H]1O (stereo partly shown)",
    "experimentalTarget": "α-isomaltosylglucosaccharide-forming enzyme",
    "Enzymatic action, Enzyme of Strain C9": "++"
  }
]

Now consider a different compound.
Query Enzymatic action, Enzyme of Strain C9 for OC[C@H]1O[C@@H](OC[C@H]2OC(O)[C@H](O)[C@@H](O)[C@@H]2O)[C@H](O)[C@@H](O)[C@@H]1O (stereo partly shown)
−

###

System: α-isomaltosylglucosaccharide-forming enzyme
protocolNotes: Influence of metal ions on the activity of α-isomaltosylglucosaccharide-forming enzyme (Strain C9)
Format: biochemical, Bacillus globisporus C9
assayContext: 1 mM of each metal-ion
valueKind: Relative activity (%)
Give the quantity in %, number only.

Example results:
[
  {
    "molecule": "[Zn+2]",
    "valueKind": "Relative activity (%)",
    "numericReadout": 92
  },
  {
    "molecule": "[Mn+2]",
    "valueKind": "Relative activity (%)",
    "numericReadout": 111
  },
  {
    "molecule": "[Hg+2]",
    "valueKind": "Relative activity (%)",
    "numericReadout": 4
  },
  {
    "molecule": "[Ca+2]",
    "valueKind": "Relative activity (%)",
    "numericReadout": 115
  }
]

Provide measured Relative activity (%) value, entry: [Pb+2]
103

Please report the measured Relative activity (%) for O=C(O)CN(CCN(CC(=O)O)CC(=O)O)CC(=O)O [EDTA, ethylenediaminetetraacetic acid, reference compound]
20

Given [Co+2] , respond with its Relative activity (%).
100

###

Tested on: α-isomaltosyl-transferring enzyme
protocolNotes: Influence of metal ions on the activity of α-isomaltosyl-transferring enzyme (Strain C9)
Assay type: biochemical, Bacillus globisporus C9
assayContext: 1 mM of each metal-ion
# maps each entry to its Relative activity (%)
Write the answer as a number in %, unit excluded.

Below, each entry is followed by its recorded Relative activity (%) result.
[
  {
    "compound": "[Ba+2] [Ba^2+]",
    "valueKind": "Relative activity (%)",
    "numericReadout": 102
  },
  {
    "compound": "[Mn+2] [Mn^2+]",
    "valueKind": "Relative activity (%)",
    "numericReadout": 106
  },
  {
    "compound": "[Pb+2] [Pb^2+]",
    "valueKind": "Relative activity (%)",
    "numericReadout": 89
  },
  {
    "compound": "[Ca+2] [Ca^2+]",
    "valueKind": "Relative activity (%)",
    "numericReadout": 101
  },
  {
    "compound": "[Zn+2] [Zn^2+]",
    "valueKind": "Relative activity (%)",
    "numericReadout": 88
  }
]

Below: the item to evaluate.
Supply reported Relative activity (%) belonging to this compound: [Co+2] [Co^2+]
103
